- target_entity: β3 adrenergic receptor (Rattus norvegicus, UniProt P26255)
- Sequence (P26255 whole entry): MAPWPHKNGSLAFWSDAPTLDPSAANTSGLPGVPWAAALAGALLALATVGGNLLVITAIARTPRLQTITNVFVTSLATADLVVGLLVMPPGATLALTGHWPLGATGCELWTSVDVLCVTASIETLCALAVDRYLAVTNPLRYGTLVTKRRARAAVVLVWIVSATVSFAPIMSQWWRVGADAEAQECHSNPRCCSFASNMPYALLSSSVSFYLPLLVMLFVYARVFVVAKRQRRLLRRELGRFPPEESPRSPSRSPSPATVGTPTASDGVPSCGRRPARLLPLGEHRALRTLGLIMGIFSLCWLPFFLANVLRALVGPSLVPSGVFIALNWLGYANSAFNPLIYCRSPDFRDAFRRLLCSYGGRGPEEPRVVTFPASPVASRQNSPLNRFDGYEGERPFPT
- method_description: [Test 1] spontaneous locomotion-suppressing effect on isolated rat colon (β3 adrenergic receptor stimulating effect)
- Type: cell-based
pEC50: −log10 of the molar value. Where a name gives a salt, the structure may show the parent alone.
recorded_metric: pEC50

>>> print(df.to_string())
                                   compound  measured
0  CCOC(=O)COc1ccc(C2CCC(NC[C@H](O)c3cccc(Cl)c3)C2)cc1 (stereo partly drawn)      7.05
1  O=C([O-])COc1cccc(C2CCCC(NC[C@H](O)c3cccc(Cl)c3)C2)c1.[Na+] (stereo partly drawn)      8.85
2  CCOC(=O)COc1ccccc1C1CCCC(NC[C@H](O)c2cccc(Cl)c2)C1 (stereo partly drawn) [Example 43, hydrochloride]      8.42
3  O=C([O-])COc1ccccc1C1CCCC(NC[C@H](O)c2cccc(Cl)c2)C1.[Na+] (stereo partly drawn)      8.48
4  CCOC(=O)COc1ccc2c(c1)CC(NCC(O)c1cccc(Cl)c1)CC2.Cl (racemic) [SR 58611A, hydrochloride, reference compound]      8.11

I. CCOC(=O)COc1cccc(C2CCCC(NC[C@H](O)c3cccc(Cl)c3)C2)c1 (stereo partly drawn) [Example 11, hydrochloride]
II. CCOC(=O)C1(C(=O)OCC)Oc2ccc(C3CCCC(NC[C@H](O)c4cccc(Cl)c4)C3)cc2O1 (stereo partly drawn)
In: Param pair: I , II . Output: the one whose pEC50 is numerically greater. Label of pick, please.
Out: I
(I: 8.43, II: 7.38)

* * *

This listing pairs compounds with measured diarrhea suppression rate.
- Test system: rat confinement stress-induced diarrhea models
- method_description: [Test 7] suppression of diarrhea in rat confinement stress-induced diarrhea models
- Assay type: in vivo, rat (male Wistar rats)
- protocol_conditions: po, 1.0 mg/kg; feces observed over 3 hours
Counter-ions that a name gives are not always drawn.
Give just the number in %; leave the unit off.

# count of solved cases: 4
>>> print(df.to_string())
                                   compound            recorded_metric  measured
0  CCOC(=O)COc1ccc2c(c1)CC(NCC(O)c1cccc(Cl)c1)CC2.Cl (racemic) [SR 58611A, reference compound]  diarrhea suppression rate        20
1  CCOC(=O)COc1ccccc1C1CCCC(NC[C@H](O)c2cccc(Cl)c2)C1 (some centres unmarked) [Example 43, hydrochloride]  diarrhea suppression rate        50
2  O=C([O-])COc1ccccc1C1CCCC(NC[C@H](O)c2cccc(Cl)c2)C1.[Na+] (some centres unmarked)  diarrhea suppression rate        30
3  O=C([O-])COc1cccc(C2CCCC(NC[C@H](O)c3cccc(Cl)c3)C2)c1.[Na+] (some centres unmarked)  diarrhea suppression rate        60

Alright, here's another compound for you.
In: Can you look up the measured diarrhea suppression rate of CCOC(=O)COc1cccc(C2CCCC(NC[C@H](O)c3cccc(Cl)c3)C2)c1 (some centres unmarked) for me?
Out: 50

* * *

- System: isolated rat bladder detrusor muscle
- method_description: [Test 5] relaxing effect on isolated rat bladder detrusor muscle (smooth muscle)
- Type: cell-based
- protocol_conditions: read-out: EC50 (relaxing effect on isolated rat bladder detrusor muscle)
This listing pairs molecules with measured pEC50.
Convention used: pEC50 is expressed as -log10 of the molar concentration.

# count of solved cases: 2
In [3]: df
Out[3]:
                                   molecule  measured
0  O=C([O-])COc1cccc(C2CCCC(NC[C@H](O)c3cccc(Cl)c3)C2)c1.[Na+] (stereo partly drawn)      7.80
1  CC(C)NCC(O)c1ccc(O)c(O)c1 (stereo not drawn)      8.00

In: Can you look up the measured pEC50 of CC(C)(C)NCC(O)c1cc(Cl)c(N)c(Cl)c1 (stereo not drawn) for me?
Out: 7.51
